Values compiled from patent US20220144922A1.

- target: RSV F protein of subtype B strain 18537, on virus (respiratory syncytial virus subtype B …, UniProt P13843 26-574)
- Sequence (P13843 26-574): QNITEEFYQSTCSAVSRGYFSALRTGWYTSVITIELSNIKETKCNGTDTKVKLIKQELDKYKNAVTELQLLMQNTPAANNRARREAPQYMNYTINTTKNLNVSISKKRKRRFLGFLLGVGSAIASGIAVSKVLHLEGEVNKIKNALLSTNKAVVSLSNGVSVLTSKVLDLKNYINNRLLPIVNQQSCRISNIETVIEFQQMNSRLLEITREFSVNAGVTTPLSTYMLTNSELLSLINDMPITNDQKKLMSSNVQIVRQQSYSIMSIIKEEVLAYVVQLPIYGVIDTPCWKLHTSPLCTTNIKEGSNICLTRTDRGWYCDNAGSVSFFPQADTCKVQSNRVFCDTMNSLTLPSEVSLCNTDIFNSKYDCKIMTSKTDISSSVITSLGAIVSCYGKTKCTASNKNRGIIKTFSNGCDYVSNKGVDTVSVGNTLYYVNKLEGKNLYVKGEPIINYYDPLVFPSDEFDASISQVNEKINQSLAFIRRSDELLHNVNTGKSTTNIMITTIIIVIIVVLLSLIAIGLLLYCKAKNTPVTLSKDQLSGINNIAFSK
- measurement.description: cell-based or functional assay
Record criterion met whenever Neut IC50 (ug/ml) subtype B is at 0.05 µg/mL or higher; record criterion not met when lower.

binder	group.label
ADI-15663 (antibody, V domains shown, IgG) VH: QVQLVQSGGGLVKPGGSLRLSCAASGFTFSSYTMNWVRQAPGKGLEWVSSITGGSSFTNYADSLEGRFTISRDNAKSSLFLQMNSLRVEDTAVYYCARDQPGTIFGVVQDYWGQGTLVTVSS VL: QSVLTQPPSVSGAPGQRVTISCTGGSSNIGAGYDVHWYQQLPGTAPKLLIYGNSNRPSGVPDRFSGSKSGTSASLAITGLQAEDEADYYCQSYDSRLSVVFGGGTKVTVL	criterion not met
ADI-15631 (antibody, V domains shown, IgG) VH: QVQLVESGGGLVQPGRSLRLSCAASGFTFDNYPMHWIRQAPGKGLEWVSGISWHSGSIGYADSVKGRFTISRDNAKNSLYLQMNSLRTEDTALYYCAKDAHYFDNSGHYYYGLDVWGQGTTVTVSS VL: EIVLTQSPATLSVSPGERATLSCRASQNIINNLAWYQQKPGQAPRLLISGASTRATGIPARFSGSGSGTEFTLTITSLQSEDFAVYYCQQYNNWPLTFGGGTKVDIK	criterion met
ADI-15667 (antibody, V domains shown, IgG) VH: EVQLVESGGGLVQPGGSLRLSCAASGFTFSDFSMSWVRQAPGKGLEWVSLIKSSGYAYYADSVRGRFTISRDNSKNTLYLQMNSLRAEDTAIYYCAKDADFWSGAAYNGGYNFDSWGQGTLVTVSS VL: DIQMTQSPATLSVFPGDRATLSCRASQSVGSNLAWYQQKPGQAPRLLIFGASTRATGIPARFSGSGSGTEFTLTISSLQSEDFAVYYCQQYHNWPPLTFGGGTKVDIK	criterion not met
ADI-15576 (antibody, V domains shown, IgG; also called Antibody Number 146) VH: QVQLVQSGAAVKKPGESLKISCKGFGYSFTKYWIGWVRQVPGKGLEWIGIISPTDSNTRYSPSFRGQVTMSADKSISAAYLQWSSLKASDTAMYYCARHSSPYSSGWYGDTYFFDSWGQGTLVTVSS VL: QPVLTQPPSASGTPGQRVTISCSGSNSNIGTNTVNWYQQLPGTAPKVLIHNNNERPSGVPDRFSGSKSGTSASLAISGLQSEDEADYYCAAWDDSLRGYVFGTGTKVTVL	criterion met
ADI-15616 (antibody, V domains shown, IgG) VH: QVQLVQSGGGLVKPGGSLRLSCAASGFTFSDHYMTWIRQAPGKGLEWVSYISSTSSFTNYADSVKGRFTISRDNAKKSLYLQMNSLRAEDTAVYYCARDRNWGYAYGSDYWGQGTLVTVSS VL: DIRLTQSPDTLSLSPGERATLSCRASQSVSSTYLAWYQQKPGQAPRLLIYGAFGRATGIPDRFSGSGSGTDFTLTISRLEPEDFAVYYCQLYGNSRTFGQGTKLEIK	criterion met
